Tested on: CAKI-1 renal
PROTOCOL_SUMMARY: NCI-60 one-dose screen, 48 h
APPLIED_CONDITIONS: 10 µM unless noted
Compounds without any hit were thinned out: in the full panel of roughly 83,000, 20% have a hit. Active and inactive are the calls of the source. Rule for the calls: active = growth percent below 10; inactive = the rest.
Return exactly one item of active, inactive

Exam item: Dear colleague, could you share the recorded outcome for "COC1=CC(=O)c2ccccc2C1=O" when you have a moment?
Marked response: inactive

Exam item: Dear colleague, could you share the recorded outcome for "COc1ccc(C(=O)/C=C/c2cc3ccccc3n3nnnc23)cc1" when you have a moment?
Marked response: inactive

Exam item: Dear colleague, could you share the recorded outcome for "Cc1ccc(/C=N/NC(=O)CSc2nc3ccccc3c(=O)n2Cc2ccc(S(N)(=O)=O)cc2)cc1" when you have a moment?
Marked response: inactive

Exam item: Dear colleague, could you share the recorded outcome for O=C(c1ccccc1)N1N=C(c2ccc(-n3ccc(C(F)(F)F)n3)c(F)c2)CC1c1ccc[nH]1 (stereo not given) when you have a moment?
Marked response: inactive

Exam item: Dear colleague, could you share the recorded outcome for "O=S(=O)(NCCCNc1nccc(-c2c(-c3cccc(F)c3)nc3sccn23)n1)c1cccc2ccccc12" when you have a moment?
Marked response: inactive

Exam item: Dear colleague, could you share the recorded outcome for "Nc1c(C(=O)Nc2ccnc3ccccc23)sc2nc3c(cc12)CN(Cc1ccccc1)CC3" when you have a moment?
Marked response: inactive

Exam item: Dear colleague, could you share the recorded outcome for "CN(C)c1ccc(Nc2c3ccccc3nc3cc(NC(=O)CCN4CCCC4)ccc23)cc1" when you have a moment?
Marked response: active

Exam item: Dear colleague, could you share the recorded outcome for "N#C/C(=C\c1ccc([N+](=O)[O-])s1)c1nc2cc(Br)ccc2s1" when you have a moment?
Marked response: active

Exam item: Dear colleague, could you share the recorded outcome for "COc1cccc(-c2ccc3c(c2)NC(=O)/C3=C\c2ccc[nH]2)c1" when you have a moment?
Marked response: inactive

Exam item: Dear colleague, could you share the recorded outcome for "Cn1cc(-c2nc(-c3c[nH]c4c(Cl)nccc34)cs2)c2cc(Br)ccc21" when you have a moment?
Marked response: inactive
